- measurement target: ENOPH1 Enolase-phosphatase E1 (Homo sapiens, UniProt Q9UHY7)
- Construct: endogenous in cells; host or cells: MDA-MB-231 (soluble fraction of lysate)
- Sequence (Q9UHY7 whole entry): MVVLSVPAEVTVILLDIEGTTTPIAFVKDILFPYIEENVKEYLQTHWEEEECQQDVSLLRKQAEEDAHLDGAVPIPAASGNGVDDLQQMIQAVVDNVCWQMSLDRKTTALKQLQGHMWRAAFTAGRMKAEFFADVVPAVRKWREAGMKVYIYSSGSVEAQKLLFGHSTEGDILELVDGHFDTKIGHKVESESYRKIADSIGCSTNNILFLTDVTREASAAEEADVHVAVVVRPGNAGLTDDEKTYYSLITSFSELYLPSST
- run description: competitive isoTOP-ABPP
- Type: binding
- test conditions: 50 uM_231_sol_in vitro
- Protocol: In vitro covalent fragment treatment for isoTOP-ABPP. All compounds were made up as solutions in DMSO (100×) and were used at a final concentration of 50 μM for activated esters and 100 μM for guanidinylating agents. […] R value calculation and processing. The ratios of light and heavy MS1 peaks for each unique peptide were quantified with a CIMAGE software using default parameters (3 MS1 acquisitions per peak and signal to noise threshold set to 2.5). […]
parameter measured: isoTOP-ABPP ratio, lysine Q9UHY7_K111
Answer with the value's number alone.

// query Item NC(=O)c1cc(C(F)(F)F)cc(C(F)(F)F)c1 [fragment 51, reference compound] has what recorded isoTOP-ABPP ratio, lysine Q9UHY7_K111?
// result 0.9

// query May I ask what isoTOP-ABPP ratio, lysine Q9UHY7_K111 has been recorded for O=C(CCc1ccc2c(c1)OCO2)Oc1ccc([N+](=O)[O-])cc1[N+](=O)[O-] [fragment 45] ?
// result 1.1

// query So what does the record say about isoTOP-ABPP ratio, lysine Q9UHY7_K111 for O=C(Oc1c(F)c(F)cc(F)c1F)c1cc(C(F)(F)F)cc(C(F)(F)F)c1 [fragment 48] ?
// result 0.9

// query Tell me the measured isoTOP-ABPP ratio, lysine Q9UHY7_K111 of O=C(Oc1c(F)c(F)c(C(F)(F)F)c(F)c1F)c1cc(C(F)(F)F)cc(C(F)(F)F)c1 [fragment 47] , please.
// result 7.8

// query Consider the compound shown here: N#Cc1ccc(C(=O)Oc2ccc([N+](=O)[O-])cc2[N+](=O)[O-])cc1 [fragment 44, 2,4-Dinitrophenyl 4-cyanobenzoate] What is its recorded isoTOP-ABPP ratio, lysine Q9UHY7_K111?
// result 0.9

// query Entry under review: O=C(ON1C(=O)CCC1=O)c1cc(C(F)(F)F)cc(C(F)(F)F)c1 [fragment 46] . Reported isoTOP-ABPP ratio, lysine Q9UHY7_K111?
// result 1.1

====

- measurement target: PFKP 6-phosphofructokinase type C (Homo sapiens, UniProt Q01813)
- Construct: isoTOP-ABPP experiments performed in cell lysates (in vitro); endogenous in cells
- Sequence (Q01813 whole entry): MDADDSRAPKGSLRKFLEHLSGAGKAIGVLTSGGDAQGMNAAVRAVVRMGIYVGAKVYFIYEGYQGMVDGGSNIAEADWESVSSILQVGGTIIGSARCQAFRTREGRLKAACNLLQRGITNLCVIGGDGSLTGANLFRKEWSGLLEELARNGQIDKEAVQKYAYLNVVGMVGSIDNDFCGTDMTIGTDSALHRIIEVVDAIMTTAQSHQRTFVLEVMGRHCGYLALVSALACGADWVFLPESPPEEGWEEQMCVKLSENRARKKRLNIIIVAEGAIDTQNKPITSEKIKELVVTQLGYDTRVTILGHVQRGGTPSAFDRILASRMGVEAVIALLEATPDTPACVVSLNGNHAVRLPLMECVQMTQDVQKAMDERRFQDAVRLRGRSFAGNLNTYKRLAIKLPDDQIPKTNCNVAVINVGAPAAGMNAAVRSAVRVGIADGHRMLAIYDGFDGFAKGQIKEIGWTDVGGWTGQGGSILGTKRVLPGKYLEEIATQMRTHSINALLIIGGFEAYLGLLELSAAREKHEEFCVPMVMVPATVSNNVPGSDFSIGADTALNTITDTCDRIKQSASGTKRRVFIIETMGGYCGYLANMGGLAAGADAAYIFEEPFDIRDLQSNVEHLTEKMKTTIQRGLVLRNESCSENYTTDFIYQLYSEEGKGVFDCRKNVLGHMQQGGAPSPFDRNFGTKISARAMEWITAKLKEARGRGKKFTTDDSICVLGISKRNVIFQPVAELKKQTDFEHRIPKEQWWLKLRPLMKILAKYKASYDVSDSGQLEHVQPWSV
- run description: competitive isoTOP-ABPP
- Format: binding
- test conditions: 50 uM_231_sol_in vitro
Provide the reported isoTOP-ABPP ratio, lysine Q01813_K688 of each item.
Please give the numeric answer without any surrounding text.

// query Which isoTOP-ABPP ratio, lysine Q01813_K688 value is on record for O=C(CCc1ccc2c(c1)OCO2)Oc1ccc([N+](=O)[O-])cc1[N+](=O)[O-] ?
// result 20.0

// query Find the recorded isoTOP-ABPP ratio, lysine Q01813_K688 belonging to O=C(ON1C(=O)CCC1=O)c1cc(C(F)(F)F)cc(C(F)(F)F)c1 and report it.
// result 1.7

// query Look up isoTOP-ABPP ratio, lysine Q01813_K688: O=C(Oc1c(F)c(F)cc(F)c1F)c1cc(C(F)(F)F)cc(C(F)(F)F)c1
// result 1.4

// query May I ask what isoTOP-ABPP ratio, lysine Q01813_K688 has been recorded for O=C(Oc1c(F)c(F)c(C(F)(F)F)c(F)c1F)c1cc(C(F)(F)F)cc(C(F)(F)F)c1 ?
// result 1.0

// query Returns the measured isoTOP-ABPP ratio, lysine Q01813_K688 for the input compound. Input: N#Cc1ccc(C(=O)Oc2ccc([N+](=O)[O-])cc2[N+](=O)[O-])cc1 [fragment 44, 2,4-Dinitrophenyl 4-cyanobenzoate]
// result 4.2

// query For the compound shown here, NC(=O)c1cc(C(F)(F)F)cc(C(F)(F)F)c1 [fragment 51, reference compound] , give the reported isoTOP-ABPP ratio, lysine Q01813_K688.
// result 0.9

====

Please go through the items and note down their isoTOP-ABPP ratio (R) at liganded lysine Q9NUJ1_K185.
- measurement target: ABHD10 Abhydrolase domain-containing protein 10, mitochondrial (Homo sapiens)
- Construct: endogenous in cells; host or cells: MDA-MB-231 lysate
- Sequence (Q9NUJ1 53-306): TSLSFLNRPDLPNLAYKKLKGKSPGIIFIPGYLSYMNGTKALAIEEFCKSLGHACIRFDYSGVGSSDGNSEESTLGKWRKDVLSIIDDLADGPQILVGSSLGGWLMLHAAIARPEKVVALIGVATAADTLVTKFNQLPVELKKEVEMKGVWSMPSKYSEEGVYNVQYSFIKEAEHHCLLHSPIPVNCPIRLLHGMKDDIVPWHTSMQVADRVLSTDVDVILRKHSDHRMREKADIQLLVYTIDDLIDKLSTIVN
- run description: competitive isoTOP-ABPP
- Format: binding
- test conditions: 50 uM, in vitro, sol, 231
Lab note: record just the number, no unit beside it.

// query Can you look up the measured isoTOP-ABPP ratio (R) at liganded lysine Q9NUJ1_K185 of O=C(CCc1coc2cc(F)ccc2c1=O)Oc1ccc([N+](=O)[O-])cc1[N+](=O)[O-] for me?
// result 1.4

// query Endpoint output: isoTOP-ABPP ratio (R) at liganded lysine Q9NUJ1_K185 of CC(C)(C)OC(=O)NCCCC(=O)Oc1ccc([N+](=O)[O-])cc1[N+](=O)[O-] . Value?
// result 3.3

// query # query: isoTOP-ABPP ratio (R) at liganded lysine Q9NUJ1_K185 of entry O=C(CC12CC3CC(CC(C3)C1)C2)Oc1ccc([N+](=O)[O-])cc1[N+](=O)[O-]
// result 3.3

====

- measurement target: ABCE1 ATP-binding cassette sub-family E member 1 (Homo sapiens, UniProt P61221)
- Construct: isoTOP-ABPP experiments performed in cell lysates (in vitro); endogenous in cells; host or cells: soluble proteome of human cancer cell lines (MDA-MB-231, Ramos, Jurkat)
- run description: competitive isoTOP-ABPP
- test conditions: 50 uM, 231 sol, in vitro
Answer each item with its documented isoTOP-ABPP reactivity ratio at lysine P61221_K478.
Reply with just the number.

// query Item O=C(CCc1coc2cc(F)ccc2c1=O)Oc1c(F)c(F)c(F)c(F)c1F has what recorded isoTOP-ABPP reactivity ratio at lysine P61221_K478?
// result 1.3

// query Any idea what isoTOP-ABPP reactivity ratio at lysine P61221_K478 was measured for O=C(Oc1c(F)c(F)c(F)c(F)c1F)C1CCN(C(=O)OCc2ccccc2)CC1 ?
// result 1.4

// query So what does the record say about isoTOP-ABPP reactivity ratio at lysine P61221_K478 for CCn1cc(C(=O)Oc2c(F)c(F)c(F)c(F)c2F)c(=O)c2ccc(C)nc21 ?
// result 1.0

====

Please respond with reported isoTOP-ABPP ratio (R) at liganded lysine P52594_K134 for every item in the list.
- measurement target: AGFG1 Arf-GAP domain and FG repeat-containing protein 1 (Homo sapiens, UniProt P52594)
- Construct: isoTOP-ABPP experiments performed in cell lysates (in vitro); endogenous in cells; host or cells: soluble proteome of human cancer cell lines (MDA-MB-231, Ramos, Jurkat)
- Sequence (P52594 whole entry, the tested form may be a part): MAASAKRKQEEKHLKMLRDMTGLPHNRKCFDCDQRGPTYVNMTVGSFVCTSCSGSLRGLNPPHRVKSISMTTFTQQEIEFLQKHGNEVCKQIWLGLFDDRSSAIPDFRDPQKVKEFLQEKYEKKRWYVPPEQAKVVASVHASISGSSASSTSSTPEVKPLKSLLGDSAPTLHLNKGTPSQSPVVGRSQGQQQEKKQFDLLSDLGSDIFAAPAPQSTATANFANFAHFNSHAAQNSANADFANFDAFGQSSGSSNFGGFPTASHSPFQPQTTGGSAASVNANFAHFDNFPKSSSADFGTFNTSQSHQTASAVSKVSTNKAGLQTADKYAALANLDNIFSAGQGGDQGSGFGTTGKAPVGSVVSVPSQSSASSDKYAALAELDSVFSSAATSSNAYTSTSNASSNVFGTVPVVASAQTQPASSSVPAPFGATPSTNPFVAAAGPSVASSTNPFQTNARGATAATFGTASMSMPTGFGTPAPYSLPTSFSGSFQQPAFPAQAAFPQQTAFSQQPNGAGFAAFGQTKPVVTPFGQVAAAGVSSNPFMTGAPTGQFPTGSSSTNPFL
- run description: competitive isoTOP-ABPP
- Assay type: binding
- test conditions: 50 uM, in vitro, sol, 231
Give your answer as a number; write no unit.

// query Look up isoTOP-ABPP ratio (R) at liganded lysine P52594_K134: CC(C)(C)OC(=O)NCCCC(=O)Oc1ccc([N+](=O)[O-])cc1[N+](=O)[O-]
// result 20.0

// query What does the record list as isoTOP-ABPP ratio (R) at liganded lysine P52594_K134 for O=C(Oc1ccc([N+](=O)[O-])cc1[N+](=O)[O-])c1ccccc1Nc1cccc(C(F)(F)F)c1 ?
// result 0.8

// query Requested field: isoTOP-ABPP ratio (R) at liganded lysine P52594_K134. Item: O=C(Oc1ccc([N+](=O)[O-])cc1[N+](=O)[O-])C(c1ccccc1)(c1ccccc1)c1ccccc1 [fragment 42, 2,4-Dinitrophenyl 2,2,2-triphenylacetate]
// result 1.0

// query Can you share its isoTOP-ABPP ratio (R) at liganded lysine P52594_K134? I mean this compound: O=C(Oc1ccc([N+](=O)[O-])cc1[N+](=O)[O-])c1ccc(Oc2ccccc2)cc1 [fragment 39, 2,4-Dinitrophenyl 4-phenoxybenzoate]
// result 1.0

// query Which isoTOP-ABPP ratio (R) at liganded lysine P52594_K134 value belongs to CC(=O)Oc1ccc([N+](=O)[O-])cc1[N+](=O)[O-] [fragment 43, 2,4-Dinitrophenyl acetate] ?
// result 4.8

// query Would you kindly share the measured isoTOP-ABPP ratio (R) at liganded lysine P52594_K134 for O=C(CCc1coc2cc(F)ccc2c1=O)Oc1ccc([N+](=O)[O-])cc1[N+](=O)[O-] ?
// result 20.0

// query What value of isoTOP-ABPP ratio (R) at liganded lysine P52594_K134 has been recorded for this entry: O=C(Oc1ccc([N+](=O)[O-])cc1[N+](=O)[O-])C1CCN(C(=O)OCc2ccccc2)CC1
// result 20.0

// query Which isoTOP-ABPP ratio (R) at liganded lysine P52594_K134 is listed for O=C(CC12CC3CC(CC(C3)C1)C2)Oc1ccc([N+](=O)[O-])cc1[N+](=O)[O-] ?
// result 1.4

// query Would you mind telling me what isoTOP-ABPP ratio (R) at liganded lysine P52594_K134 value was observed for O=C(Oc1ccc([N+](=O)[O-])cc1[N+](=O)[O-])c1ccc(-c2ccccc2)cc1 ?
// result 1.1
